target: Muscarinic acetylcholine receptor M1 (Homo sapiens) (UniProt P11229); experiment: Cholinergic receptor muscarinic 1 (CHRM1) small molecule agonists, cell-based qHTS assay (AID 1963589); conditions: CHRM1-CHO cells, agonist mode, calcium flux fluorescence; series mostly up to 76.8 µM; further: on the % scale 0 is the no-effect control and ±100 the full control effect; nearly all actives have a fitted effect of over 35% in size
Sequence (P11229 whole entry, looked up): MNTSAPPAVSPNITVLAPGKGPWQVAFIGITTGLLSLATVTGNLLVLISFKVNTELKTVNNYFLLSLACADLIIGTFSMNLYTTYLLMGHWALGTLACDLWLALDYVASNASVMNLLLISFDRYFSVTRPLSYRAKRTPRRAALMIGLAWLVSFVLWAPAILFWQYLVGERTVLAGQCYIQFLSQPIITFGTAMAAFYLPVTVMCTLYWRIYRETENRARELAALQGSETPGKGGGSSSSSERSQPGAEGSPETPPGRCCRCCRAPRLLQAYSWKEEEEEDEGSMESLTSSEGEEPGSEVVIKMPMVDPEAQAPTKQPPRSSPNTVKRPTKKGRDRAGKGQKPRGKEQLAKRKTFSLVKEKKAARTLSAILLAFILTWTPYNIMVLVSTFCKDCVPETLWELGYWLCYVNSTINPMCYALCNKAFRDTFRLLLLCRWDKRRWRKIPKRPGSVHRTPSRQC
The source made the active and inactive calls. The call rests on the fitted dose curve.
metric: activation

Some compounds with known activation results, for comparison:
OCC(CO)n1cnc(-c2ccc(F)cc2)c1-c1ccnc(Oc2ccccc2)n1 | inactive
COc1ccc2c(c1)C(=O)N(CCc1ccc(S(=O)(=O)NC(=O)NC3CCCCC3)cc1)C(=O)C2(C)C | inactive
CCC(=O)c1cccc(Cl)c1 | inactive
CCNc1nc(NC(C)(C)C)nc(OC)n1 | inactive
COCCOC(=O)C1=C(C)NC(C)=C(C(=O)OC/C=C/c2ccccc2)C1c1cccc([N+](=O)[O-])c1 (stereo not given) | inactive
CCCCCCCCCCCC(=O)N(CC)CC | inactive
Cc1cscn1 | inactive
COc1c(Br)cc(Br)c(C)c1Br | inactive

For every listed record, write down its activation.
1. Cc1ccc(-n2[nH]c(C)c(N=Nc3cccc(-c4cccc(C(=O)O)c4)c3O)c2=O)cc1C
2. CCCCCC[C@@H](CCC)C(=O)O
3. CCCC(C(=O)OCCN(CC)CC)(c1ccccc1)c1ccccc1
4. CCC(C)(CCCC(C)C)OC(C)=O (stereo not given)
5. CCN(C(=O)c1cc(C)cc(OC[C@H](C)Nc2ccncc2)c1)C(C)C
6. COC(=O)c1c(C)cc(O)c(C)c1O

Out:
inactive
inactive
inactive
inactive
inactive
inactive

For every listed record, write down its activation.
1. CC(C)=CCC[C@@](C)(O)[C@H]1CC=C(C)CC1
2. CC(C)(Oc1ccc(Cl)cc1)C(=O)OCCCOC(=O)C(C)(C)Oc1ccc(Cl)cc1
3. CCCCOc1cc(C(=O)OCCN(CC)CC)ccc1N
4. C[C@@H](O)[C@H](N)C(=O)O

Out:
inactive
inactive
inactive
-0.0423% [at 15.8 µM] (inactive)

For every listed record, write down its activation.
1. CN(C)C/C=C(/c1ccc(Br)cc1)c1cccnc1
2. CCCN(CCC)CCc1cccc2c1CC(=O)N2
3. CC(C)CCCCCCOC(=O)c1ccc(C(=O)OCCCCCCC(C)C)c(C(=O)OCCCCCCC(C)C)c1
4. O=C1CCC(C2CCCCC2)CC1
5. O=C(c1ccco1)N1CCNCC1
6. CC1(C)CC(OC(=O)CCCCCCCCC(=O)OC2CC(C)(C)NC(C)(C)C2)CC(C)(C)N1
7. Cc1ccc(/C=N/n2c(-c3ccccc3)csc2=S)cc1

Out:
1: inactive; 2: inactive; 3: inactive; 4: inactive; 5: inactive; 6: -1.98% [at 15.8 µM] (inactive); 7: inactive
